All figures here come from patent US20140322307A1.

# assayed_target: T1, Proteinase-Activated Receptor-2 (human, on human keratinocytes) (human, UniProt P55085 37-397)
# T1 sequence (looked up): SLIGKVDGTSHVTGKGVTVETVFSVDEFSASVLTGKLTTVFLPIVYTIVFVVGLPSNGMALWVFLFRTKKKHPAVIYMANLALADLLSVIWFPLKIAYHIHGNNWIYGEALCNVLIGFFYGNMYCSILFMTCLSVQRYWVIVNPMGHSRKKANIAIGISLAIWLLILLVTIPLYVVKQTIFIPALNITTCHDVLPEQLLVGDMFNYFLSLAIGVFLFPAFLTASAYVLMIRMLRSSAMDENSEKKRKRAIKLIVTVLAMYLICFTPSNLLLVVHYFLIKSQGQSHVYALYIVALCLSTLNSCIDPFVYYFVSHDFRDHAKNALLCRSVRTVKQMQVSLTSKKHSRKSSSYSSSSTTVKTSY
# test_summary: cell-based or functional assay
metric: PAR-2 activity (calcium fluorescence, human keratinocytes, peptide at 1 mg/mL) (%)

The cases that follow already have their PAR-2 activity (calcium fluorescence, human keratinocytes, peptide at 1 mg/mL) on record.
binder: Ac-FFRFIV-NH2 [Ac-L-Phe-L-Phe-L-Arg-L-Phe-L-Ile-L-Val-NH2]
assay_result: 46.3

binder: Ac-FFWDIV-NH2 [Ac-L-Phe-L-Phe-L-Trp-L-Asp-L-Ile-L-Val-NH2]
assay_result: 32.6

binder: Ac-SMQFHV-NH2 [Ac-L-Ser-L-Met-L-Gln-L-Phe-L-His-L-Val-NH2]
assay_result: 84.9

(A) Ac-FFWDIS-NH2 [Ac-L-Phe-L-Phe-L-Trp-L-Asp-L-Ile-L-Ser-NH2]
(B) Ac-SFWFHV-NH2 [Ac-L-Ser-L-Phe-L-Trp-L-Phe-L-His-L-Val-NH2]
(C) Ac-FMQDIV-NH2 [Ac-L-Phe-L-Met-L-Gln-L-Asp-L-Ile-L-Val-NH2]
q: Task field, ranking: reported PAR-2 activity (calcium fluorescence, human keratinocytes, peptide at 1 mg/mL), descending order. // rank by listing labels in the order requested
a: C, A, B

(A) Ac-FFQFHS-NH2 [Ac-L-Phe-L-Phe-L-Gln-L-Phe-L-His-L-Ser-NH2]
(B) Ac-SFRFIV-NH2 [Ac-L-Ser-L-Phe-L-Arg-L-Phe-L-Ile-L-Val-NH2]
q: Thinking about recorded PAR-2 activity (calcium fluorescence, human keratinocytes, peptide at 1 mg/mL) values, which is higher, A or B ? State the label of the item chosen.
a: A

(1) Ac-FFWFIV-NH2 [Ac-L-Phe-L-Phe-L-Trp-L-Phe-L-Ile-L-Val-NH2]
(2) Ac-SMWFIV-NH2 [Ac-L-Ser-L-Met-L-Trp-L-Phe-L-Ile-L-Val-NH2]
(3) Ac-FMWFIS-NH2 [Ac-L-Phe-L-Met-L-Trp-L-Phe-L-Ile-L-Ser-NH2]
q: Task field, ranking: reported PAR-2 activity (calcium fluorescence, human keratinocytes, peptide at 1 mg/mL), descending order. // rank by listing labels in the order requested
a: 1, 2, 3
(1: 86.1%, 2: 56.7%, 3: 32.3%)
